- System: Hypomyces aurantius IFO 6847 strain
- protocol_description: D-amino acid production from N-acetyl-D-amino acid by washed fungal cells
- Assay type: cell-based
- test_parameters: Hypomyces aurantius IFO 6847 cells; 0.1% substrate, Tris-HCl pH 7.5, 30° C., 24 hours
reported_property: D-amino acid produced from N-acetyl-D-amino acid (mg/mL)

# chemical_smiles, val
records = [
    ("CC(=O)N[C@H](Cc1ccccc1)C(=O)O", 0.005),
    ("CC(=O)N[C@H](Cc1c[nH]c2ccccc12)C(=O)O", 0.008),
    ("CC(=O)N[C@H](CC(C)C)C(=O)O", 0),
    ("CSCC[C@@H](NC(C)=O)C(=O)O", 0.02),
    ("CC(=O)N[C@@H](C(=O)O)C(C)C", 0.14),
]

---

- Test system: D-aminoacylase
- protocol_description: Effects of various metal salts and reagents on residual enzyme activity
- Type: biochemical, Hypomyces mycophilus IFO 6785
- test_parameters: pH 9.5
Reported Relative activity (%) values are given for each entry in this list.

# compound, measured_target, Relative activity (%)
data = [
    ("[Cl-].[Cl-].[Zn+2]", "D-aminoacylase", 26.2),
    ("[Cl-].[Cl-].[Co+2]", "D-aminoacylase", 63.1),
    ("[Cl][Ni][Cl]", "D-aminoacylase", 57.7),
    ("O=S(=O)(F)Cc1ccccc1 [PMSF, phenyl methyl sulfonyl fluoride]", "D-aminoacylase", 94.2),
    ("[Cl-].[Cl-].[Mg+2]", "D-aminoacylase", 98.0),
    ("[Cl][Hg][Cl]", "D-aminoacylase", 13.4),
    ("NC(=O)CI [Iodoacetamide]", "D-aminoacylase", 185),
]

---

- Tested on: D-aminoacylase
- protocol_description: Substrate specificity of purified D-aminoacylase (TNBS method)
- Assay type: biochemical, Hypomyces mycophilus IFO 6785
- test_parameters: summary of Table 5
reported_property: activity of the enzyme for the substrate (in words)

# molecule, val
data = [
    ("CC(=O)N[C@@H](Cc1c[nH]c2ccccc12)C(=O)O [N-acetyl-L-tryptophan]", "inactive"),
    ("CSCC[C@H](NC(C)=O)C(=O)O [N-acetyl-L-methionine]", "inactive"),
    ("CC(=O)N[C@H](Cc1c[nH]c2ccccc12)C(=O)O [N-acetyl-D-tryptophan]", "very active"),
    ("CC(=O)N[C@@H](Cc1ccccc1)C(=O)O [N-acetyl-L-phenylalanine]", "inactive"),
    ("CC(=O)N[C@H](C(=O)O)C(C)C [N-acetyl-L-valine]", "inactive"),
    ("O=C(CCl)N[C@H](Cc1ccccc1)C(=O)O [N-chloroacetyl-D-phenylalanine]", "especially active"),
    ("CC(=O)N[C@H](Cc1ccccc1)C(=O)O [N-acetyl-D-phenylalanine]", "especially active"),
    ("CC(=O)N[C@H](CC(C)C)C(=O)O [N-acetyl-D-leucine]", "very active"),
    ("CSCC[C@@H](NC(C)=O)C(=O)O [N-acetyl-D-methionine]", "very active"),
    ("CC(=O)N[C@@H](CC(C)C)C(=O)O [N-acetyl-L-leucine]", "inactive"),
]

---

- System: D-aminoacylase (crude enzyme) of Menisporopsis novaezelandiae IFO 9179
- protocol_description: Crude enzyme activity for each N-Ac-D-amino acid substrate
- Assay type: biochemical
- test_parameters: Menisporopsis novaezelandiae IFO 9179 crude enzyme; 20 mM substrate, 1 mM CoCl2, 50 mM phosphate buffer pH 7.0
Hi, to clarify the labels: Satisfied covers amount of D-amino acids produced from the corresponding N-acetyl-D-amino acids from 0.9 mM upward, Not satisfied covers anything below 0.9 mM.

# compound, discrete_label
records = [
    ("CC(=O)N[C@H](Cc1c[nH]c2ccccc12)C(=O)O [N-acetyl-D-tryptophan]", "Satisfied"),
    ("CC(=O)N[C@H](Cc1ccccc1)C(=O)O [N-acetyl-D-phenylalanine]", "Not satisfied"),
    ("CC(=O)N[C@@H](C(=O)O)C(C)C [N-acetyl-D-valine]", "Not satisfied"),
    ("CC(=O)N[C@H](CC(=O)O)C(=O)O [N-Acetyl-D-aspartic acid]", "Not satisfied"),
    ("CC(=O)N[C@H](C)C(=O)O [N-acetyl-D-alanine, N-Acetyl-D-alanine]", "Not satisfied"),
]

---

- System: D-aminoacylase (crude enzyme) of Auricularia auriculajudae IFO 5949
- protocol_description: Crude enzyme activity for each N-Ac-D-amino acid substrate
- Format: biochemical
- test_parameters: Auricularia auriculajudae IFO 5949 crude enzyme; 20 mM substrate, 1 mM CoCl2, 50 mM phosphate buffer pH 7.0
Each entry gets 0.0 if its amount of D-amino acids produced from the corresponding N-acetyl-D-amino acids stays under 2 mM, and 1.0 if its amount of D-amino acids produced from the corresponding N-acetyl-D-amino acids is 2 mM or above.

# chemical_smiles, discrete_label
rows = [
    ("CSCC[C@@H](NC(C)=O)C(=O)O", 1.0),
    ("CC(=O)N[C@H](Cc1c[nH]c2ccccc12)C(=O)O", 1.0),
    ("CC(=O)N[C@H](CC(C)C)C(=O)O", 1.0),
    ("CC(=O)N[C@@H](C(=O)O)C(C)C", 1.0),
    ("CC(=O)N[C@H](Cc1ccccc1)C(=O)O", 1.0),
    ("CC(=O)N[C@H](C)C(=O)O", 0.0),
    ("CC(=O)N[C@H](CC(=O)O)C(=O)O", 0.0),
]

---

- System: Hypomyces rosellus IFO 6911 strain
- protocol_description: D-amino acid production from N-acetyl-D-amino acid by washed fungal cells
- Format: cell-based
- test_parameters: Hypomyces rosellus IFO 6911 cells; 0.1% substrate, Tris-HCl pH 7.5, 30° C., 24 hours
Below, each entry is listed alongside its reported D-amino acid produced from N-acetyl-D-amino acid.
reported_property: D-amino acid produced from N-acetyl-D-amino acid (mg/mL)

# chemical_smiles, readout_units, val
measured = [
    ("CC(=O)N[C@H](Cc1c[nH]c2ccccc12)C(=O)O", "mg/mL", 0.08),
    ("CSCC[C@@H](NC(C)=O)C(=O)O", "mg/mL", 0.14),
    ("CC(=O)N[C@@H](C(=O)O)C(C)C", "mg/mL", 2.73),
    ("CC(=O)N[C@H](CC(C)C)C(=O)O", "mg/mL", 0.3),
    ("CC(=O)N[C@H](Cc1ccccc1)C(=O)O", "mg/mL", 0.06),
]

---

The reader will find reported D-amino acid produced from N-acetyl-D-amino acid values listed item by item below.
- Tested on: Hypomyces mycophilus IFO 6785 strain
- protocol_description: D-amino acid production from N-acetyl-D-amino acid by washed fungal cells
- Assay type: cell-based
- test_parameters: Hypomyces mycophilus IFO 6785 cells; 0.1% substrate, Tris-HCl pH 7.5, 30° C., 24 hours
reported_property: D-amino acid produced from N-acetyl-D-amino acid

# compound, measured_target, val
data = [
    ("CSCC[C@@H](NC(C)=O)C(=O)O [N-acetyl-D-methionine]", "Hypomyces mycophilus IFO 6785 strain", "0.71 mg/mL"),
    ("CC(=O)N[C@H](Cc1c[nH]c2ccccc12)C(=O)O [N-acetyl-D-tryptophan]", "Hypomyces mycophilus IFO 6785 strain", "0.40 mg/mL"),
    ("CC(=O)N[C@H](Cc1ccccc1)C(=O)O [N-acetyl-D-phenylalanine]", "Hypomyces mycophilus IFO 6785 strain", "0.65 mg/mL"),
    ("CC(=O)N[C@H](CC(C)C)C(=O)O [N-acetyl-D-leucine]", "Hypomyces mycophilus IFO 6785 strain", "0.55 mg/mL"),
    ("CC(=O)N[C@@H](C(=O)O)C(C)C [N-acetyl-D-valine]", "Hypomyces mycophilus IFO 6785 strain", "0.98 mg/mL"),
]

---

Each entry below carries its reported Relative activity (%).
- System: D-aminoacylase
- protocol_description: Effects of various metal salts and reagents on residual enzyme activity
- Format: biochemical, Hypomyces mycophilus IFO 6785
- test_parameters: compound 1 mM; kept at 40° C. for 30 min, pH 9.5; residual activity, no addition = 100
reported_property: Relative activity (%)

# molecule, val
data = [
    ("O=C(O)CN(CCOCCOCCN(CC(=O)O)CC(=O)O)CC(=O)O [EGTA]", 90.9),
    ("O=C(O)CN(CCN(CC(=O)O)CC(=O)O)CC(=O)O [EDTA]", 96.0),
    ("CCN1C(=O)C=CC1=O [N-ethylmaleimide]", 15.2),
    ("c1cnc2c(c1)ccc1cccnc12 [o-Phenanthroline]", 78.8),
    ("NO [Hydroxylamine]", 96.2),
    ("O=S(=O)([O-])[O-].[Cu+2] [CuSO4]", 20.4),
    ("O=S(=O)([O-])[O-].[Zn+2] [ZnSO4]", 11.6),
]
